pA50 overview
Molecular target: T1, human corticotrophin releasing hormone receptor type 1 (CRHR1) (human, UniProt P34998 24-415)
T1 sequence (looked up): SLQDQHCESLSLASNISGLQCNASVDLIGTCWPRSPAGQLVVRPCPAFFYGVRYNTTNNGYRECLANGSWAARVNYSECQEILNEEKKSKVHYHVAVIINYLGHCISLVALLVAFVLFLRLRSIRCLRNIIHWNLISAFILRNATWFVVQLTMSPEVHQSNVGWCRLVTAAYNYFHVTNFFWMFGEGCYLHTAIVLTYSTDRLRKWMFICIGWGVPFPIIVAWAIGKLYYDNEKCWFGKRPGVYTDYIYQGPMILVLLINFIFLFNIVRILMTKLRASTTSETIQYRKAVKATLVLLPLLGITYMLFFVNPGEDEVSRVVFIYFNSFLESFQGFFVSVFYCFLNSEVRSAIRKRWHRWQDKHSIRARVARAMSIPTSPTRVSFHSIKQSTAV
Test: cell-based or functional assay
Where no end group is shown, it is not given here.

{"BINDER": "DDPPLSIDLTFHLLRTLLELARTQSQRERAEQNRIIFDSV-NH2 [r-UCN1]", "pA50": "9.19 -log10(M)"}
{"BINDER": "IVLSLDVPIGLLQILLEQARARAAREQATTNARILARV-NH2 [human urocortin 2]", "pA50": "6.02 -log10(M)"}
{"BINDER": "FTLSLDVPTNIMNLLFNIAKAKNLRAQAAANAHLMAQI-NH2 [human urocortin III]", "pA50": "< 5 -log10(M)"}
{"BINDER": "TKFTLSLDVPTNIMNLLFNIAKAKNLRAQAAANAHLMAQI-NH2 (40-amino-acid peptide; also called h-SCP) [Human stresscopin with amidated C-terminus]", "pA50": "< 5 -log10(M)"}
